Tested on: VDR:RXRa (NR concentration 270 nM, RXRa partner concentration 90 nM)
Assay: PBM binding z-score (relative to random genomic background probes); higher = stronger binding; sequences stand for … in GC…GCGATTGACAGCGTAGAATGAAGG
outcome.measure: PBM binding z-score
One number for each entry.

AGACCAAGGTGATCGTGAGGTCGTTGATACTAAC : 3.12

Please look at the items below and tell me PBM binding z-score for each one, in order.
1. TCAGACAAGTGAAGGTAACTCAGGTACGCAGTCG
2. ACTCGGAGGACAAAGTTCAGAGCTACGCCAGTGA
3. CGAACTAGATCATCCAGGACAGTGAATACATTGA
4. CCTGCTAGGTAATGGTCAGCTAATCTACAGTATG
5. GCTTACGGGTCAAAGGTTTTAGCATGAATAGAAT
6. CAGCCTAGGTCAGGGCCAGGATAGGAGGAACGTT
7. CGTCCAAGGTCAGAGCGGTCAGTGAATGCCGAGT

A)
1: 0.46; 2: 1.95; 3: 0.286; 4: -0.407; 5: 4.08; 6: 0.0936; 7: 5.45

Please look at the items below and tell me PBM binding z-score for each one, in order.
1. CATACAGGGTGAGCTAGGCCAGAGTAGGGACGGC
2. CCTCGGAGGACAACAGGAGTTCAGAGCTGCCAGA
3. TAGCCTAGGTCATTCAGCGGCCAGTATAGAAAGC
4. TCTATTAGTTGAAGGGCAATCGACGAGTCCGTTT
5. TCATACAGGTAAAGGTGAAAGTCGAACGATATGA
6. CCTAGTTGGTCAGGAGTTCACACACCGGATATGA

A)
1: -0.189; 2: 1.14; 3: 2.62; 4: 1.02; 5: 1.13; 6: 3.54

Please look at the items below and tell me PBM binding z-score for each one, in order.
1. TCTCTTAGTTGAAGGGCAACCGACGAGTCCGTTT
2. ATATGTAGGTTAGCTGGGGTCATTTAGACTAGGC
3. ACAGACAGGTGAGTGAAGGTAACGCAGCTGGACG
4. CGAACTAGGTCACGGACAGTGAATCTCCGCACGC
5. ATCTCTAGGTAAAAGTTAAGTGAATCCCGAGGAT
6. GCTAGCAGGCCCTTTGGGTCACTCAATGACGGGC

A)
0.951
5.97
-0.28
2.74
-0.0664
-0.206

====

System: VDR homodimer (NR concentration 270 nM)
Experiment: PBM binding z-score (relative to random genomic background probes); higher = stronger binding; sequences stand for … in GC…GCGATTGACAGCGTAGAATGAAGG
Kindly supply the reported PBM binding z-score values for the records listed here.
One number for each entry.

Example sequences with recorded PBM binding z-score:
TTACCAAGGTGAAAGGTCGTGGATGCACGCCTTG : 0.435
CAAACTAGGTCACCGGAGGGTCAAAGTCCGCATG : 2.78
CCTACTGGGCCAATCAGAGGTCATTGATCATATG : 3.81

Please look at the items below and tell me PBM binding z-score for each one, in order.
1. AATACAGGGGCACTAGGCCAGAGTAGGTACGAAT
2. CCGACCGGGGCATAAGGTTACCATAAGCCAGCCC
3. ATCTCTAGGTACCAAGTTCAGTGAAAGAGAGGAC
4. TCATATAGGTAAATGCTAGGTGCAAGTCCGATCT

A)
1. 0.185
2. 0.0101
3. 2.26
4. 0.597

Please look at the items below and tell me PBM binding z-score for each one, in order.
1. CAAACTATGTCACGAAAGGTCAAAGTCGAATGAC
2. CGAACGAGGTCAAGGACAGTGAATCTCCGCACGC
3. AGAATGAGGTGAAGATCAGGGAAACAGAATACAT
4. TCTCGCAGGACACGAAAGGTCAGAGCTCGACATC
5. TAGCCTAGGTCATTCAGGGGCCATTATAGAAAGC

A)
1: 2.8; 2: 3.5; 3: 0.103; 4: 0.759; 5: 1.96

====

Tested on: VDR homodimer (NR concentration 270 nM)
Assay: PBM binding z-score (relative to random genomic background probes); higher = stronger binding; sequences stand for … in GC…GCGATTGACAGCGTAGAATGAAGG
Kindly supply the reported PBM binding z-score values for the records listed here.
One number for each entry.

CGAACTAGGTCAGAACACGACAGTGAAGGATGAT : -0.122
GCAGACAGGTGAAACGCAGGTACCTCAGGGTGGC : -0.935
GCTCGGAGGACAAGGTCAGAGCGTTGTCCGTAGA : 0.555
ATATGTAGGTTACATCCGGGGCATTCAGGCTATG : 0.977
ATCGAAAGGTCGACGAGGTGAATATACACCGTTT : 1.84
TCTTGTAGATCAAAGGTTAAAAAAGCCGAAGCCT : 0.177
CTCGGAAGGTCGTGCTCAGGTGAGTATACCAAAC : 0.743
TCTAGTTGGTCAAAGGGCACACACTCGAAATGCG : 0.575

Please look at the items below and tell me PBM binding z-score for each one, in order.
1. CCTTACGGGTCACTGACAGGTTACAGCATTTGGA
2. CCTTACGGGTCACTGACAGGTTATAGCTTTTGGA
3. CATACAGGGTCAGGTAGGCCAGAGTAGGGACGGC
4. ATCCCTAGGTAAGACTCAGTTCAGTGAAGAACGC
5. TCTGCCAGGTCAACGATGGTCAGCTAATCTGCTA
6. GCTATTAGTTGAAAGGTCAACCGAATGATTCTCG
7. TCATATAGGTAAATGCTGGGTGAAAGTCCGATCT

A)
1. 1.01
2. 0.718
3. 1.14
4. 1.07
5. 0.359
6. 2.06
7. 0.384

Please look at the items below and tell me PBM binding z-score for each one, in order.
1. CGAACGAAGGCATGAGTTGATAGCAAATGCCGAT
2. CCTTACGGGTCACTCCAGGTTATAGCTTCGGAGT
3. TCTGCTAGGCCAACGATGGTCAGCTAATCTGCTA
4. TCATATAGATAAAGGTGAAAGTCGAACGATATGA
5. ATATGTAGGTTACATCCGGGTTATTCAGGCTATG
6. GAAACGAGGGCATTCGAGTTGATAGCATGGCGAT
7. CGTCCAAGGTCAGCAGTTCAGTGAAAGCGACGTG

A)
-0.193
1.61
-1.49
-0.308
0.79
3.34
2.41

Please look at the items below and tell me PBM binding z-score for each one, in order.
1. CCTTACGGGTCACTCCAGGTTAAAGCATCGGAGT
2. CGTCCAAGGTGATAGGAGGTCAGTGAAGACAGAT
3. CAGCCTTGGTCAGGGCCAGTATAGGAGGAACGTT
4. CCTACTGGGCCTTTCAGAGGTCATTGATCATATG

A)
1.41
0.846
-0.985
2.8

Please look at the items below and tell me PBM binding z-score for each one, in order.
1. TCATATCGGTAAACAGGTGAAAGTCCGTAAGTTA
2. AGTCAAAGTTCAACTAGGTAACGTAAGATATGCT
3. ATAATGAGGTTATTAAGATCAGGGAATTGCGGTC
4. TCGACTAGGTTAGTCGGGGCATTCAGCCAACATA

A)
1: 0.533; 2: 4.09; 3: 1.8; 4: 0.492

Please look at the items below and tell me PBM binding z-score for each one, in order.
1. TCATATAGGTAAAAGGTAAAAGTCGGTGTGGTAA
2. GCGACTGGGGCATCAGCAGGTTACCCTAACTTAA
3. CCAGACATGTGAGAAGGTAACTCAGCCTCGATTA
4. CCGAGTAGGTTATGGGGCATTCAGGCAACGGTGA
5. TCATATAGGAAAAGGTGAAAGTCGAACGATATGA
6. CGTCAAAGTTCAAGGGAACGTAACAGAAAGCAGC
7. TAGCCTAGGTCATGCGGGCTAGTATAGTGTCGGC
8. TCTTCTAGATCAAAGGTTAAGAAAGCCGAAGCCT

A)
0.494
-0.558
0.382
-0.196
0.135
2.72
0.2
0.119

Please look at the items below and tell me PBM binding z-score for each one, in order.
1. CCTACTGGGCCATCAGGTCATTCATATCAACGTT
2. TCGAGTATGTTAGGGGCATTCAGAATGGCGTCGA
3. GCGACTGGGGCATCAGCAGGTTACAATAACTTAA
4. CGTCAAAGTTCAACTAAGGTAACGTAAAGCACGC
5. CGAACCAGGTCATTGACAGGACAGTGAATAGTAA
6. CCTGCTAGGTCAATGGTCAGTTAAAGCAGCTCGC
7. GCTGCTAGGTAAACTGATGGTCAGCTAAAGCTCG

A)
[2.34, 1.66, -0.0954, 3.26, 1.8, 0.506, -0.973]

Please look at the items below and tell me PBM binding z-score for each one, in order.
1. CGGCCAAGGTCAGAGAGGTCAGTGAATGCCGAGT
2. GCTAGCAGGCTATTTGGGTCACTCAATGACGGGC
3. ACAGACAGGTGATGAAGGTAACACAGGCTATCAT

A)
1: 5.9; 2: -0.158; 3: 0.22

Please look at the items below and tell me PBM binding z-score for each one, in order.
1. TCTTGTAGATCAACGGGAGGTTAAGAAAGATCGA
2. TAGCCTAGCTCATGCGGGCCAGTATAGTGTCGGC
3. CCGACTGGGGCAAGGTTACGATAACGCACAGCCA

A)
-0.124
-0.887
-0.241
